System: P93_24
Assay: qHTS profiling for inhibitors of Plasmodium falciparum proliferation (AID 504749); further: nearly all actives have a fitted effect of over 60% in size
Conditions: P. falciparum in erythrocytes, SYBR Green DNA, 72 h; series mostly up to 28.7 µM
Records with an inconclusive call do not appear. Calls of active or inactive are those of the source. The call rests on the fitted dose curve; in most records, active means well fitted inhibition curve with a large enough effect; inconclusive means small, poorly fitted or top-dose-only effect; inactive means flat fitted curve, though single readings scatter.
Choose one outcome from this list and give only that: true (1) for active, false (0) for inactive

Short answer needed: outcome of this test for C#C[C@]1(O)CC[C@H]2[C@@H]3CCc4cc(OC)ccc4[C@H]3CC[C@@]21C ?
false (0)

Short answer needed: outcome of this test for COc1ccccc1N1CCN(CCCCNC(=O)c2ccc(-c3ccc(C(C)=O)cc3)cc2)CC1 ?
false (0)

Short answer needed: outcome of this test for COc1cc(C)nc(-n2nc(C)cc2OC)n1 ?
false (0)

Short answer needed: outcome of this test for CCCc1ncc(C[n+]2ccccc2C)c(N)n1 ?
false (0)

Short answer needed: outcome of this test for CCNC(=O)/C=C/c1cccc(Br)c1 ?
false (0)

Short answer needed: outcome of this test for CCOC(=O)[C@H](CCc1ccccc1)N[C@@H](C)C(=O)N1[C@H](C(=O)O)C[C@H]2CCCC[C@@H]21 ?
false (0)

Short answer needed: outcome of this test for CCCCCCCCCCCCCCCC(=O)O ?
false (0)

Short answer needed: outcome of this test for NC(=O)c1ccccc1O ?
false (0)

Short answer needed: outcome of this test for CC(=O)Nc1ccc(OCC(O)CNC(C)C)cc1 (configuration not stated) ?
false (0)

Short answer needed: outcome of this test for Nc1ccc(S(=O)(=O)Nc2cnc3ccccc3n2)cc1 ?
false (0)

Short answer needed: outcome of this test for CCCCCCCCCCCCCC[N+](C)(C)Cc1ccccc1 ?
true (1)

Short answer needed: outcome of this test for CCc1oc2ccccc2c1C(=O)c1cc(I)c(O)c(I)c1 ?
false (0)
